Value source: the supplement of paper PMC9112550

- Test system: Escherichia coli TOP10
- methodNotes: shrunken log2 fold change of peptide-encoding DNA abundance (4.5 h post-induction vs induction); higher = less antimicrobial activity (less host growth inhibition)
- assayContext: time post-induction: 4.5 h; library: site-saturation at positions 5, 18, 19, 20
measuredProperty: shrunken log2 fold change

- polymerSequence: "RRIRNRPPRLPRPRPRPNIQPRP"
  shrunken log2 fold change: -0.748
- polymerSequence: "RRIRGRPPRLPRPRPRPQIHPRP"
  shrunken log2 fold change: 0.32

Given the sequence `RRIRWRPPRLPRPRPRPKEPPRP` , what is its reported shrunken log2 fold change? 0.117

---

- Test system: Escherichia coli TOP10
- methodNotes: shrunken log2 fold change of peptide-encoding DNA abundance (4.5 h post-induction vs induction); higher = less antimicrobial activity (less host growth inhibition)
- assayContext: time post-induction: 4.5 h; library: site-saturation at positions 5, 18, 19, 20
Cut-off 0.09 on shrunken log2 fold change, inclusive. At or above means fulfilled; below means not fulfilled.

Worked set:
- polymerSequence: "RRIRHRPPRLPRPRPRPCWRPRP"
  class: "not fulfilled"
- polymerSequence: "RRIRERPPRLPRPRPRPHRGPRP"
  class: "not fulfilled"

Check if shrunken log2 fold change >= 0.09 (inclusive). Item: `RRIRQRPPRLPRPRPRPRYQPRP` not fulfilled

Check if shrunken log2 fold change >= 0.09 (inclusive). Item: `RRIRHRPPRLPRPRPRPCSRPRP` not fulfilled

Check if shrunken log2 fold change >= 0.09 (inclusive). Item: `RRIRQRPPRLPRPRPRPMNAPRP` not fulfilled

Check if shrunken log2 fold change >= 0.09 (inclusive). Item: `RRIRIRPPRLPRPRPRPWAWPRP` not fulfilled

---

- Test system: Escherichia coli TOP10
- methodNotes: shrunken log2 fold change of peptide-encoding DNA abundance (4.5 h post-induction vs induction); higher = less antimicrobial activity (less host growth inhibition)
- assayContext: time post-induction: 4.5 h; library: site-saturation at positions 5, 18, 19, 20
Cut-off 0.03 on shrunken log2 fold change, inclusive. At or above means True; below means False.

- polymerSequence: "RRIRFRPPRLPRPRPRPQGFPRP"
  class: "False"
- polymerSequence: "RRIRLRPPRLPRPRPRPSPIPRP"
  class: "False"
- polymerSequence: "RRIRQRPPRLPRPRPRPDNQPRP"
  class: "False"
- polymerSequence: "RRIRDRPPRLPRPRPRPHHKPRP"
  class: "False"
- polymerSequence: "RRIRPRPPRLPRPRPRPGVNPRP"
  class: "False"
- polymerSequence: "RRIRARPPRLPRPRPRPQIRPRP"
  class: "True"
- polymerSequence: "RRIRPRPPRLPRPRPRPELRPRP"
  class: "False"
- polymerSequence: "RRIRERPPRLPRPRPRPNIVPRP"
  class: "False"
- polymerSequence: "RRIRARPPRLPRPRPRPTCPPRP"
  class: "True"
- polymerSequence: "RRIRQRPPRLPRPRPRPFRFPRP"
  class: "True"

Check if shrunken log2 fold change >= 0.03 (inclusive). Item: `RRIRTRPPRLPRPRPRPVDHPRP` False

Check if shrunken log2 fold change >= 0.03 (inclusive). Item: `RRIRCRPPRLPRPRPRPSAFPRP` True

---

Field: shrunken log2 fold change. Provide a value for each of the sequences that follow.
- Test system: Escherichia coli TOP10;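 note: peptides expressed intracellularly from a pBAD plasmid library in pooled LB shake-flask culture, induced with 0.3% L-arabinose, DNA abundance read by NGS, three biological replicates, DESeq2 with apeglm shrinkage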
- methodNotes: shrunken log2 fold change of peptide-encoding DNA abundance (4.5 h post-induction vs induction); higher = less antimicrobial activity (less host growth inhibition)
- assayContext: time post-induction: 4.5 h; library: site-saturation at positions 5, 18, 19, 20
One number for each entry.

- polymerSequence: "RRIRARPPRLPRPRPRPSVAPRP"
  testedSystem: "Escherichia coli TOP10"
  shrunken log2 fold change: 0.485
- polymerSequence: "RRIRDRPPRLPRPRPRPRPCPRP"
  testedSystem: "Escherichia coli TOP10"
  shrunken log2 fold change: 0.429
- polymerSequence: "RRIRERPPRLPRPRPRPHLPPRP"
  testedSystem: "Escherichia coli TOP10"
  shrunken log2 fold change: -0.136
- polymerSequence: "RRIRTRPPRLPRPRPRPHNDPRP"
  testedSystem: "Escherichia coli TOP10"
  shrunken log2 fold change: -1.58

Consider the additional sequence presented here.
Given the sequence `RRIRLRPPRLPRPRPRPYDTPRP` , what is its reported shrunken log2 fold change? -0.925
